ASSAYED SYSTEM: human plasma kallikrein (Homo sapiens (Human), UniProt P03952)
Sequence (P03952 391-638): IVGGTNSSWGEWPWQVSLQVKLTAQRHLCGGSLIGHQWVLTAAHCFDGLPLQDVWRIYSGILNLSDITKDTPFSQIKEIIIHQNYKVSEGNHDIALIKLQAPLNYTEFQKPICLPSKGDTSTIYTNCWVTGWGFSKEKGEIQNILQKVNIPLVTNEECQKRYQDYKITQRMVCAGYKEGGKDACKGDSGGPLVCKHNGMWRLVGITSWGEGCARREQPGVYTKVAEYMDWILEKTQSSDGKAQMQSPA
Sequence (P03952 20-390 partner): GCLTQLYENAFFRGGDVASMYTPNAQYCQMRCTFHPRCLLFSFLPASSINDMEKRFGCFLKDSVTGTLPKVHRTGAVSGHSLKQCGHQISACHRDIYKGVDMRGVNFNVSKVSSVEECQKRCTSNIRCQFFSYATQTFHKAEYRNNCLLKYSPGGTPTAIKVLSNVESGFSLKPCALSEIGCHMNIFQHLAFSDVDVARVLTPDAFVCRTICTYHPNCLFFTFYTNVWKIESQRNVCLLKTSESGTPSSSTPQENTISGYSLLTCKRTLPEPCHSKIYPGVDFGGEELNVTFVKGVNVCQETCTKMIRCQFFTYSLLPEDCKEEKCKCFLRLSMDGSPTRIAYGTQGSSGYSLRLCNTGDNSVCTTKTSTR
METHOD: Determination of the plasma kallikrein activity (fluorogenic peptide substrate)
Type: biochemical
DETAILS: plasma kallikrein from Kordia, substrate H-Pro-Phe-Arg-AMC, 22° C., 30 min
pIC50: −log10 of the molar value.
Condition met means recorded pIC50 is 8 or above; Condition not met means it is below 8.

COMPOUND	CAT
COCCC(C(=O)Nc1ccc(C(=O)O)s1)n1cc(Cl)c(-c2cc(Cl)ccc2C#N)cc1=O (racemic)	Condition not met
COCCC(C(=O)Nc1cc(F)c(C(N)=O)s1)n1cc(OC)c(-c2cc(Cl)ccc2C#N)cc1=O (racemic) [Example 9]	Condition not met
CNC(=O)c1ccc(NC(=O)C(Cc2ccn(C)n2)n2cc(OC)c(-c3cc(Cl)ccc3C#N)cc2=O)s1 (racemic) [Example 15]	Condition met
COc1cn(C(Cc2ccncc2)C(=O)Nc2cc(F)c(C(N)=O)s2)c(=O)cc1-c1cc(Cl)ccc1C#N (racemic)	Condition not met
COCCC(C(=O)Nc1ccc(C(N)=O)s1)n1cc(Cl)c(-c2cc(Cl)ccc2C#N)cc1=O (racemic)	Condition not met
COc1cn(C(Cc2ccccn2)C(=O)Nc2cc(F)c(C(N)=O)s2)c(=O)cc1-c1cc(Cl)ccc1F (racemic)	Condition not met
COCCC(C(=O)Nc1cc(F)c(C(N)=O)s1)n1cc(OC)c(-c2cc(Cl)ccc2C#N)cc1=O (single isomer, unassigned; enantiomer 1) [Example 10]	Condition not met
CNC(=O)c1ccc(NC(=O)C(Cc2ccn(C)n2)n2cc(OC)c(-c3cc(Cl)ccc3C#N)cc2=O)s1 (single isomer, unassigned; enantiomer 1) [Example 16]	Condition met

---

Endpoint: pIC50. System: human factor XIa (Homo sapiens (Human), UniProt P03951). Items follow.
Sequence (P03951 388-625): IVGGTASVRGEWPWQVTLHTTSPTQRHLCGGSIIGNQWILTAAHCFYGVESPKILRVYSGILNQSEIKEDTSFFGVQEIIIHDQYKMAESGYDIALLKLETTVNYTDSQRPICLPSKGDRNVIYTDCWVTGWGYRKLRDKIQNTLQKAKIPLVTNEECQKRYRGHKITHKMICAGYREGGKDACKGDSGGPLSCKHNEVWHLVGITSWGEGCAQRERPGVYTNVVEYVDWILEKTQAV
Sequence (P03951 19-387 partner): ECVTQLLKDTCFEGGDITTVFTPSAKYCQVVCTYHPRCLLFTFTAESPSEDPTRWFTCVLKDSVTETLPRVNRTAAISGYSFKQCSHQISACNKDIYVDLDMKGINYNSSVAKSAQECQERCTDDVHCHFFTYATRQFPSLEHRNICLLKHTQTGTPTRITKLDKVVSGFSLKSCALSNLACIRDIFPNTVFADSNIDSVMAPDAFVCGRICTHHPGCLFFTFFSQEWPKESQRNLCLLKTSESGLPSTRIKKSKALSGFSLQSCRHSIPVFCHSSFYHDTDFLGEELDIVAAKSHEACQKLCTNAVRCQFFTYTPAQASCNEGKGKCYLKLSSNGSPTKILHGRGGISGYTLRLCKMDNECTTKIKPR
pIC50: −log10 of the molar value.

COMPOUND	pIC50
COc1cn(C(Cc2ccccn2)C(=O)Nc2cc(F)c(C(N)=O)s2)c(=O)cc1-c1cc(Cl)ccc1F (racemic) [Example 6]	5.92
COCCC(C(=O)Nc1ccc(C(=O)O)s1)n1cc(Cl)c(-c2cc(Cl)ccc2C#N)cc1=O (racemic) [Example 19]	8.16
CNC(=O)c1ccc(NC(=O)C(Cc2cnco2)n2cc(OC)c(-c3cc(Cl)ccc3C#N)cc2=O)s1 (racemic) [Example 17]	8.21
COCCC(C(=O)Nc1ccc(C(N)=O)s1)n1cc(Cl)c(-c2cc(Cl)ccc2C#N)cc1=O (racemic) [Example 2]	7.59
COCCC(C(=O)Nc1cc(F)c(C(N)=O)s1)n1cc(OC)c(-c2cc(Cl)ccc2C#N)cc1=O (racemic) [Example 9]	7.27
